Molecular target: T1, Syncrip NeR1R2R3 (Homo sapiens, UniProt O60506 16-428)
T1 sequence: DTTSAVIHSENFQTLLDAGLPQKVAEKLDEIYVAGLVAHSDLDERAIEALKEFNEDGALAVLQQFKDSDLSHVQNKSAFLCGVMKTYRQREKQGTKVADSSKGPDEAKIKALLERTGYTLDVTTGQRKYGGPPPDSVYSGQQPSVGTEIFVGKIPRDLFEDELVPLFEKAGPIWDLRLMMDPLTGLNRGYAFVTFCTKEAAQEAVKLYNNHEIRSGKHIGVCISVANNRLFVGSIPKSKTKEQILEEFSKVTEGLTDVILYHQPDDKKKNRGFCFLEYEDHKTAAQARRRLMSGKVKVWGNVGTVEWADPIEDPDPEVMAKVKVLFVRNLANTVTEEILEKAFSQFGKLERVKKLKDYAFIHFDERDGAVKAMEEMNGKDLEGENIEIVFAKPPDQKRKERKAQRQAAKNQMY
Experiment: BLI; BLI: 5 mM Tris-HCl pH 7.4, 50 mM NaCl, 1 mM TCEP, 0.5 mg/mL BSA, 30 C; NMR: 5 mM Tris-HCl pH 7.4, 50 mM NaCl, 0.5 mM TCEP
Details: protein: recombinant; tags: His6-SUMO or His, removed by HRV 3C; label: 5'-biotin (BLI)

Binder	Result Unit	Kd
UCACUUUGUAGACCAGGCUGG (ssRNA) [miR-3470 full-length]	nM	2
